# Test system: OVCAR-3 ovarian
# measurement.protocol: NCI-60 one-dose screen, 48 h (100 = growth as untreated, 0 = no growth, -100 = all killed)
# condition: 10 µM unless noted
# Procedure: Growth inhibition of the OVCAR-3 human tumor cell line is measured as a screen for anti-cancer activity. Cells are grown in 96 well plates and exposed to the test compound for 48 hours. Compounds are tested at a single concentration, which is 10^-5 M for most compounds. The reported endpoint is percent growth (GI% or GIPRCNT), where numbers from 0 - 100% represent growth inhibition, and numbers from -100% - 0 represent cell death. For example, a value of 40 represents 60% growth inhibition. […]
About 83,000 compounds went through this panel and 20% of them were active in at least one assay; those are over-represented in the sample as a whole.
Label Condition met for high-side growth (at or above 70%) and Condition not met for low-side growth (below it).

Query block: Entry Cc1c2oc3c(C)ccc(C(=O)OC(C)C4NC(=O)C(C(C)C)N(C)C(=O)CN(C)C(=O)C5CCCN5C(=O)C(C(C)C)NC4=O)c3nc-2c(C(=O)OC(C)C2NC(=O)C(C(C)C)N(C)C(=O)CN(C)C(=O)C3CCCN3C(=O)C(C(C)C)NC2=O)c(N)c1=O (stereo not drawn) : is its growth no less than 70%?
Result block: Condition not met

Query block: Please indicate if the recorded growth for Oc1c(Cl)cc(Cl)c(Cl)c1Cc1c(O)c(Cl)cc(Cl)c1Cl meets or exceeds 70%.
Result block: Condition not met

Query block: Could you please find out whether N#Cc1c(-c2ccc(F)cc2)n2c(nc1=O)SC(=O)C2=O has growth that meets 70% or exceeds it?
Result block: Condition met

Query block: Form field: growth at least 70%? Entry: CC(C)Cn1cnc2c(NCn3nc(-c4cc(Cl)cc(Cl)c4Cl)n(/N=C/c4ccc(Cl)cc4)c3=S)nc3ccccc3c21
Result block: Condition met

Query block: Is growth at least 70%? Consider O=C(Nc1ccc(Cl)cc1)Nc1nc2ccc(OC(F)(F)F)cc2o1
Result block: Condition met

Query block: Item O=C(Nc1ccc(Cl)cc1)Nc1ccccc1CNc1nc(Nc2ccc(OCCN3CCCC3)cc2)ncc1Cl with growth of 70% or above?
Result block: Condition not met

Query block: Could you please find out whether COc1ccc(CNC(=O)c2c(C)n([O-])c3ccc(OC)cc3[n+]2=O)cc1 has growth that meets 70% or exceeds it?
Result block: Condition met

Query block: hey, is growth for this one >= 70%? O=C1/C(=C/c2ccc(F)cc2)Cc2ccccc21
Result block: Condition met

###

# Tested on: HOP-92 NSCLC
# measurement.protocol: NCI-60 one-dose screen, 48 h
# condition: 10 µM unless noted
# Experimental: Growth inhibition of the HOP-92 human Non-Small Cell Lung tumor cell line is measured as a screen for anti-cancer activity. Cells are grown in 96 well plates and exposed to the test compound for 48 hours. Compounds are tested at a single concentration, which is 10^-5 M for most compounds. The reported endpoint is percent growth (GI% or GIPRCNT), where numbers from 0 - 100% represent growth inhibition, and numbers from -100% - 0 represent cell death. […]
This is part of a sample that, as a whole, favours compounds with a hit. Of some 83,000 tested, about 20% had one in any assay. Active and inactive are the calls of the source. How the source made its calls: active means growth percent below 10; inactive means the rest.
Answer with one of the outcomes active, inactive

Query block: Called result for C[C@@H]1C[C@@H]([C@@H](CC2CC(=O)NC(=O)C2)OC(=O)CC(=O)c2ccccc2)C(=O)[C@@H](C)C1
Result block: active

Query block: GET /call?item= O=C(Nc1nn2c(-c3cc(C(F)(F)F)cc(C(F)(F)F)c3)nnc2s1)C1CCCC1 returns the recorded outcome of this test.
Result block: active

Query block: What did this assay record as the result for Clc1ccc2c(c1)C(Br)c1cc(Cl)cc(Cl)c1-2 (stereo not drawn) ?
Result block: inactive

Query block: Which outcome did this test record for the compound C(=C1c2ccccc2-c2ccccc21)c1ccccn1 ?
Result block: inactive

Query block: Hello, I am checking results. What call was entered for CC(=O)Nc1c(Cl)cc2c(c1Cl)Cc1ccccc1-2 ?
Result block: inactive

Query block: For this compound, state the assay outcome: O=C1c2cccc3c([N+](=O)[O-])ccc(c23)C(=O)N1CCCCl
Result block: active

Query block: Name the outcome recorded for Cc1cc(C)c2c(N)c3cccc(C)c3nc2n1 in the assay.
Result block: active

Query block: Per the records of this test, what outcome belongs to CC(C)=CCCC(C)c1ccc(C)c2c1OCN(CC1CCNCC1)C2 (stereo not drawn) ?
Result block: inactive

Query block: # lookup: test call for CCCCCCCCCCCCCCCCNC(=O)Nc1ccc2ccccc2c1
Result block: inactive

Query block: What was the test verdict on Cc1ccc(C2=Nc3c(ccc4c(C)c(C)c(=O)oc34)OC2)cc1 ?
Result block: inactive

Query block: For COc1cc(C2CC(C3C(=O)N(C)C(=O)N(C)C3=O)=NN2C=O)cc(OC)c1OC (stereo not drawn) , which call appears in the assay record?
Result block: inactive

Query block: Kindly provide the recorded test outcome for the following compound: Cc1csc(C#Cc2cncc(O)c2)n1
Result block: inactive

Query block: Lab log entry: NS(=O)(=O)N(c1cc(C(F)(F)F)cc(C(F)(F)F)c1)C1CCN(Cc2ccc(C(F)(F)F)cc2)CC1 — outcome as called in the assay?
Result block: active

Query block: Write down the call the test reported for this compound. Item: COc1cnc2c(c1)C(=O)c1c-2n(CCCN2CCNCC2)c(=O)c2cc(F)ccc12
Result block: active

Query block: What outcome does the record of this test show for Cc1ccc2nc(-c3ccc(N(C)C)c(Br)c3)cn2c1 ?
Result block: inactive

Query block: What call does the record list for CNc1nc(NC2CCCC2)nc(Sc2ccc(OC)cc2)n1 ?
Result block: active

Query block: Recorded call for O=C1C2C(C(=O)N1CC[Se][Se]CCN1C(=O)C3C(C1=O)[C@H]1C=C[C@@H]3C1)[C@H]1C=C[C@@H]2C1 (stereo partly drawn) ?
Result block: active

Query block: Name the outcome recorded for CCCCCCCCN(CCO)CCCCCCCC in the assay.
Result block: inactive

Query block: Answer briefly: the call reported for CN(C)CCCNc1nn2c(=O)c3ccccc3nc2c2ccccc12 in this assay.
Result block: inactive

Query block: Short answer needed: outcome of this test for CCN(CC)CCCCCCCNc1c2ccc(Cl)cc2nc2ccc(OC)cc12 ?
Result block: active

Query block: Test call for this compound, please: OCCN1CCN(CCCN2c3ccccc3Sc3ccc(C(F)(F)F)cc32)CC1
Result block: active

Query block: What classification did O=[N+]([O-])c1ccc(N=Nc2c(Cl)cc(O)cc2Cl)cc1 end up with in this test?
Result block: active

Query block: Recorded test call requested for O=C1Nc2ccc(C(=O)O)c(O)c2C1=O
Result block: inactive

###

# Tested on: MCF7 breast
# measurement.protocol: NCI-60 one-dose screen, 48 h (100 = growth as untreated, 0 = no growth, -100 = all killed)
# condition: 10 µM unless noted
About 83,000 compounds went through this panel and 20% of them were active in at least one assay; those are over-represented in the sample as a whole.
observation.type: growth (%)
Write the number in % without appending the unit.

Query block: Lab note: need growth for CCOC(=O)c1sc(NC(=O)COc2ccc(/C=C3\CCc4cc(OC)ccc4C3=O)cc2)nc1C on MCF7 breast, anyone have it?
Result block: 112

Query block: Which measured growth belongs to COc1ccc(-c2nnc3c4[nH]cnc4ncn23)c(OC)c1 , tested on MCF7 breast?
Result block: 7.19

Query block: Entry CCOC(=O)c1sc(NC(=O)COc2cccc(/C=C3\CCc4cc(OC)ccc4C3=O)c2)nc1C , system MCF7 breast: what growth was measured?
Result block: 18.9

Query block: Which growth is reported with MCF7 breast for this entry: CCN(CC)c1ccc(C(=C2C=CC(=[N+](CC)Cc3cccc(S(=O)(=O)O)c3)C=C2)c2ccc(N(CC)Cc3cccc(S(=O)(=O)O)c3)cc2)cc1 ?
Result block: 52.1

###

# Test system: HT29 colon
# measurement.protocol: NCI-60 one-dose screen, 48 h
# condition: 10 µM unless noted
This is part of a sample that, as a whole, favours compounds with a hit. Of some 83,000 tested, about 20% had one in any assay. Active and inactive are the calls of the source. How the source made its calls: active means growth percent below 10; inactive means the rest.
Would you mind answering with one of these outcomes? True for active, False for inactive

Query block: Field: outcome | Entry: COC(=O)C1=CCC(n2cnc3c(N)ncnc32)O1 (stereo not given)
Result block: False

Query block: Recorded call for O=c1[nH]c(N2CCC(Cc3ccccc3)CC2)nc2sc3c(c12)CCCC3 ?
Result block: False

Query block: Status in this test for Cn1cc(NC(=O)Nc2cc(C(=O)O)n(C)c2)cc1C(=O)O ?
Result block: False

Query block: Entry O=CNc1ccc2c(c1)Cc1cc([N+](=O)[O-])ccc1-2 : call = ?
Result block: False

Query block: I would be grateful if you could indicate the recorded call for COc1ccc(-c2nc3sc4c(c3c(=O)[nH]2)CCCCCC4)cc1 .
Result block: False

Query block: What outcome does the record of this test show for COc1cc(/C=C/C(=O)CC(=O)/C=C/c2ccc(OC(=O)C3C4CC5CC(C4)CC3C5)c(OC)c2)ccc1OC(=O)C1C2CC3CC(C2)CC1C3 (stereo not given) ?
Result block: False

Query block: Returns: the outcome recorded for COc1cnc2c(c1)C(=O)c1c-2n(CCCNC2=NCCS2)c(=O)c2cc(F)ccc12 in this assay.
Result block: False

Query block: Just curious, what result did O=C(N/N=C/c1cccc(O)c1)c1ccc(C(F)(F)F)nc1Nc1cccc(C(F)(F)F)c1 get here?
Result block: True

Query block: Fill in: this test's call for O=C(Nc1nc(-c2ccc(Cl)cc2)cs1)c1cc(-c2ccc(Br)cc2)nc2ccc(Cl)cc12 is ___
Result block: True

Query block: Please let me know the test result on file for OCCN1CCN(CCCN2c3ccccc3Sc3ccc(C(F)(F)F)cc32)CC1 .
Result block: True

Query block: Identify the outcome logged in this assay for the compound shown: CC(=O)N1N=C(c2ccc(Nc3ccnc4cc(Cl)ccc34)cc2)CC1c1ccc(Cl)cc1 (stereo not given)
Result block: False

Query block: # lookup: test call for CC(C)CC1NC(=O)C(CCCN)NC(=O)C(C(C)C)NC(=O)C2CCCN2C(=O)C(Cc2ccccc2)NC(=O)C(CC(C)C)NC(=O)C(CCCN)NC(=O)C(C(C)C)NC(=O)C2CCCN2C(=O)C(Cc2ccccc2)NC1=O (stereo not given)
Result block: True

Query block: Dear colleague, could you share the recorded outcome for O=C(O)CNC(=O)C1(N2C(=O)c3ccccc3C2=O)CCCC1 when you have a moment?
Result block: False

Query block: Status in this test for CC(NNC(=S)N1CCCCCC1)c1ccc2ccccc2n1 (stereo not given) ?
Result block: False

Query block: Given Cc1onc(-c2ccccc2Cl)c1C(=O)N[C@@H]1C(=O)N2[C@@H]1SC(C)(C)[C@@H]2C(=O)O , state the outcome it received in this test.
Result block: False

Query block: What call does the record list for Cc1n(Cc2ccc3ccccc3c2)cc[n+]1Cc1ccc2ccccc2c1 ?
Result block: True

Query block: // return assay outcome for Cc1n(Cc2ccc3ccccc3c2)c2ccccc2[n+]1Cc1ccc2ccccc2c1
Result block: True

Query block: Tell me the assay call for C=C1CCC2C3(C)COC(c4ccccc4)OC3CCC2(C)C1C/C=C1/C(=O)OCC1OC(C)=O (stereo not given) please.
Result block: False

Query block: Outcome logged for O=C(c1ccc(N2CCOCC2)cc1[N+](=O)[O-])N1CCOCC1 in this assay:
Result block: False

Query block: Test call for this compound, please: O=C(NN1C(=O)c2cc(C(=O)O)c(C(=O)O)cc2C1=O)c1ccncc1
Result block: False

Query block: # outcome recorded in this test, key = [N-]=[N+]=NCc1ncc(-c2ccc(C(F)(F)F)cc2)c(NC2CCCCCC2)n1
Result block: False

Query block: # lookup: test call for COc1cccc(N2CCN(CC(=O)N3CCN(c4nnc(-c5ccc(Cl)cc5)c(-c5ccc(Cl)cc5)n4)CC3)CC2)c1
Result block: False

Query block: Tell me the recorded outcome of this test for CSc1nc2nc3c(nc2c(=O)n1C)C(=O)c1ccccc1C3=O .
Result block: True

Query block: Write down the call the test reported for this compound. Item: COC(=O)c1cc2c(/C=C3/NC(=S)NC3=O)coc2n1C
Result block: False

Query block: Hi team, can someone confirm the assay call for CC1CN(/N=C/c2ccc([N+](=O)[O-])o2)C(=N)O1 (stereo not given) ?
Result block: False

Query block: What call does the record list for CCCCCCCCCCOC(C)=O ?
Result block: False

Query block: Write down the call the test reported for this compound. Item: O=C(CNC(=O)c1cccc2ccccc12)Nc1ccccc1Oc1ccc(O)cc1
Result block: True

Query block: Which outcome was assigned to COc1ccc2nc(NC(=O)CN3CCn4c(nnc4C(F)(F)F)C3)sc2c1 in this test?
Result block: False

Query block: Entry CCSCC1CC(O)(c2ccccc2)C(c2ccccc2)C(c2ccc(Cl)cc2)O1 (stereo not given) : call = ?
Result block: False

Query block: Entry Cc1cccc2nnc(-c3ccccc3)n12 : call = ?
Result block: False

Query block: Please let me know the test result on file for Clc1ccc(C2c3ccccc3-c3nccn32)c(Cl)c1 (stereo not given) .
Result block: False

Query block: Assay result, entry O=Nc1c2cccnc2n2nnc3ccc(Cl)cc3c12 — outcome?
Result block: True

Query block: Please let me know the test result on file for CC(C)OP(=O)(OC(C)C)c1ncc(-c2ccc(C(F)(F)F)cc2)c(NC2CCCCCC2)n1 .
Result block: True

Query block: Would you mind telling me which call this test gave COP(=O)(OC)C(c1ccccc1)(c1ccccc1)c1ccccc1 ?
Result block: False

Query block: What call does the record list for CCOC(=O)OCC(=O)[C@@]1(O)CC[C@H]2[C@@H]3CCC4=CC(=O)CC[C@]4(C)[C@H]3[C@@H](O)C[C@@]21C ?
Result block: False

Query block: Which outcome did this test record for the compound COc1ccc(/C=C2/SC(=Nc3c(C)nn(-c4ccccc4)c3N)NC2=O)cc1 ?
Result block: False

Query block: What was the test verdict on OC(c1cc(-c2cccc(Cl)c2)nc2ccccc12)C1CCCCN1 (stereo not given) ?
Result block: True

Query block: // param item: Cc1nn(-c2nc3ccccc3s2)c(C)c1Oc1ccccc1O ; yields the recorded call
Result block: False

Query block: # lookup: test call for OCCCc1n(Cc2ccc3ccccc3c2)c2ccccc2[n+]1Cc1ccc2ccccc2c1
Result block: True

Query block: Dear colleague, could you share the recorded outcome for COc1cc2c(cc1OC)C(CC1(O)CCCCC1)N(S(=O)(=O)c1ccc(C)cc1)CC2 (stereo not given) when you have a moment?
Result block: False
